- target.entity: Integrin alpha-IIb/beta-3 (Homo sapiens, UniProt P05106+P08514)
- Sequence (P05106 27-788 limits assumed): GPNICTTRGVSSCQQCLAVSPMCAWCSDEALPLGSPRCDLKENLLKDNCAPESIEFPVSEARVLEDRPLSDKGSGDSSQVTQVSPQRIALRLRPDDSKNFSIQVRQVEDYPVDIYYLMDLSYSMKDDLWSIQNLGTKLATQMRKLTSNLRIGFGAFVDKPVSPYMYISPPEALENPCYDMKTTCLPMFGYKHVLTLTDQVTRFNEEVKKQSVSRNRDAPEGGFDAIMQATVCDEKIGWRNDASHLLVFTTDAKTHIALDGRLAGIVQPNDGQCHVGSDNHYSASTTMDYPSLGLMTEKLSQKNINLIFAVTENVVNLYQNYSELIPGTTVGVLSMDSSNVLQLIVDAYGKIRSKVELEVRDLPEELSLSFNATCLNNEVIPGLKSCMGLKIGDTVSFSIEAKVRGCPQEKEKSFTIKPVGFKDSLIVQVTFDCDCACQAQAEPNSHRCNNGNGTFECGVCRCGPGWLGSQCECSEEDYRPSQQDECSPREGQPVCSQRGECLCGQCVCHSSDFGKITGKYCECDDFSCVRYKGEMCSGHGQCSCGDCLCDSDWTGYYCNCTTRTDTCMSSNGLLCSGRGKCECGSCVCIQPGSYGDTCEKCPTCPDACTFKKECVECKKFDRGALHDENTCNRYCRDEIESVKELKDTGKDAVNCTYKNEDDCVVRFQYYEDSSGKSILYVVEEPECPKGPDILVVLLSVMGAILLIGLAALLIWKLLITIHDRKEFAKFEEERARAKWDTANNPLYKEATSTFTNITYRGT
- Sequence (P08514 32-887 limits assumed): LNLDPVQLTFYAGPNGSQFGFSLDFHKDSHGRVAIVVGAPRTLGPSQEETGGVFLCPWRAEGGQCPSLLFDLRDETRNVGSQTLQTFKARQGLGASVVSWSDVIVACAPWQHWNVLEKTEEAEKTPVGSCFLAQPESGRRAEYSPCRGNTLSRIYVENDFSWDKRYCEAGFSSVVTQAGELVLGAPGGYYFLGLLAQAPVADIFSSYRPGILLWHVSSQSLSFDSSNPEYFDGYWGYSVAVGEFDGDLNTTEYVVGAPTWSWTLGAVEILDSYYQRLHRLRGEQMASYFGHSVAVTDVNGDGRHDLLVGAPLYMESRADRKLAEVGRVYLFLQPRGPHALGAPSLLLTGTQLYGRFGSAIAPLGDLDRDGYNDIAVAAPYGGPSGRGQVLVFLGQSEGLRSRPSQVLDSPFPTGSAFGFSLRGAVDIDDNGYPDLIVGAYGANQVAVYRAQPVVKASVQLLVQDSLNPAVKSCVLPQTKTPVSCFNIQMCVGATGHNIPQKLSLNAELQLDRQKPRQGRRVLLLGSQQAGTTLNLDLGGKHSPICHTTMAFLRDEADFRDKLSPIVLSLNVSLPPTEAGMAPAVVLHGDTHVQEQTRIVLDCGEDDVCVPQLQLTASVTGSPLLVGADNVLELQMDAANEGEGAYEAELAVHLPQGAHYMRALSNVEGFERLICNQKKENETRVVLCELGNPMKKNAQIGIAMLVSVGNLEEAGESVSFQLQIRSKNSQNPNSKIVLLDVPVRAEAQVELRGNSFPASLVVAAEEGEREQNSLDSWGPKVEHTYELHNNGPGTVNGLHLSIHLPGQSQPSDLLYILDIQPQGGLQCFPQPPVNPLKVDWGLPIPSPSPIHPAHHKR
- Sequence (P08514 891-1039 limits assumed): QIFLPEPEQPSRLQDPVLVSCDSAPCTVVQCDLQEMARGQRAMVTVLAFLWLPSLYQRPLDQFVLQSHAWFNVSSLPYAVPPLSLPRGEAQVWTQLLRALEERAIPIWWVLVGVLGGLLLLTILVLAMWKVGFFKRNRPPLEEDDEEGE
- assay.method.text: Inhibition of fibrinogen binding to platelet glycoprotein alpha IIb beta-3 integrin in ELISA
measured.metric: IC50 (nM)

Some molecules with known IC50 results, for comparison:
- smiles.string: "N=C(N)c1ccc(CN2CCN(c3ccc(CC(=O)O)cc3)CC2)cc1"
  IC50, nM: 2510
- smiles.string: "N=C(N)c1ccc(CN2CCN(c3cccc(CC(=O)O)c3)CC2)cc1"
  IC50, nM: 39800
- smiles.string: "CN(CC(=O)c1ccc(OCC(=O)O)c(OCC(=O)O)c1)C(=O)c1ccc(C(=N)N)cc1"
  IC50, nM: 1
- smiles.string: "N=C(N)c1ccc(N2CCN(C3CCN(CC(=O)O)CC3)CC2)cc1"
  IC50, nM: 7.94
- smiles.string: "N=C(N)c1ccc(N2CCN(c3ccc(CC(=O)O)cc3)CC2)cc1"
  IC50, nM: 1000

1 = N=C(N)c1ccc(N2CCN(Cc3cccc(CC(=O)O)c3)CC2)cc1
2 = N=C(N)c1ccc(N2CCN(c3ccc(CCC(=O)O)cc3)CC2)cc1
Query: Please compare: 1 and 2 . Report which one has the smaller IC50 value. Provide the label of your selected option as the answer.
Response: 2
(2: 25.1 nM, 1: 1260 nM)

1 = N=C(N)c1ccc(CN2CCN(c3cccc(OCC(=O)O)c3)CC2)cc1
2 = N=C(N)c1ccc(N2CCN(Cc3cccc(OCC(=O)O)c3)CC2)cc1
3 = N=C(N)c1ccc(N2CCN(c3cccc(CC(=O)O)c3)CC2)cc1
Query: Ascending by IC50, please: list the molecules accordingly. Form entry: ranked labels (order as requested).
Response: 3, 2, 1
(3: 1580 nM, 2: 3980 nM, 1: 15800 nM)
